Assay: Metabolic stability in human liver microsomes
Format: in vitro ADME
Conditions: human, pH 7.4
property: CLint scaled at 1 µM (mL/min/kg)

Use these answered entries as a reference point.
molecule	measurement unit	CLint scaled at 1 µM
CN1CCN(c2ccc(OC(F)(F)F)c(Nc3ncc4c(n3)-c3c(c(C(=O)NO)nn3CCF)CC4)c2)CC1	mL/min/kg	41.8
Cn1nc(C(N)=O)c2ccc3cnc(Nc4cc(N5CCN(CCO)CC5)ccc4OC(F)(F)F)nc3c21	mL/min/kg	44.1
CN1CCN(c2ccc(OCC(F)(F)F)c(Nc3ncc4c(n3)-c3c(c(C(N)=O)nn3CCO)CC4)c2)CC1	mL/min/kg	28.6

(a) CN1CCN(c2ccc(OC(F)(F)F)c(Nc3ncc4c(n3)-c3c(c(C(N)=O)cn3CCO)CC4)c2)CC1
(b) CN1CCN(c2ccc(OC(F)(F)F)c(Nc3ncc4c(n3)-c3c(c(C(N)=O)nn3CCC#N)CC4)c2)CC1
input: CLint scaled at 1 µM comparison. Which is larger, a or b ? Respond with the label that goes with your answer.
output: b
(b: 44.1 mL/min/kg, a: 22.7 mL/min/kg)

(I) CN1CCN(c2ccc(OC(F)(F)F)c(Nc3ncc4c(n3)-c3c(c(C(=O)NN)nn3CCO)CC4)c2)CC1
(II) CN1CCN(c2ccc(OC(F)(F)F)c(Nc3ncc4ccc5c(C(N)=O)nn(C)c5c4n3)c2)CC1
input: Lab log: flag the item ( I or II ) with the smaller CLint scaled at 1 µM figure. Answer by quoting the chosen item's label.
output: I
(I: 17.5 mL/min/kg, II: 78.7 mL/min/kg)
